assay: autophagy modulators in MEF cells, primary screen, imaging, high-content, MEF GFP-LC3 (AID 463193); settings: MEF GFP-LC3 puncta imaging, at 10 µM; measured here: cell loss, nuclei count;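 as to toxicity: cell loss after 18 h compound exposure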
Among all 190,000 compounds or so, about 1,900 (1%) were called active. For the sample, actives were picked, then their nearest neighbours and some compounds at random.
toxicity overview
The reply should be a number in %, with the unit left off.

>  <Compound>
O=C(c1cccc(C(=O)N2CCc3ccccc32)n1)N1CCc2ccccc21

>  <Recorded number>
25.5

$$$$

Q. Respond only with toxicity recorded for Cc1ccc(NC(=O)CN(C)Cc2ccc(F)cc2)c([N+](=O)[O-])c1
A. 3.98

Q. Respond only with toxicity recorded for CC(=O)C1(C)N(O)C(C)(C)C(c2cccs2)=[N+]1[O-] (centres undefined)
A. -3.76

Q. Respond only with toxicity recorded for CCC(=O)c1ccc(OCC(O)CN2CCN(c3cccc(C(F)(F)F)c3)CC2)cc1 (centres undefined)
A. 8.02

Q. Respond only with toxicity recorded for CCc1nc2ccccc2c(C(=O)NCc2ccc(OC)cc2)c1C
A. -18.8

Q. Respond only with toxicity recorded for Cc1ccc2nc(SCc3nnc(-c4ccccc4[N+](=O)[O-])o3)c(C#N)cc2c1
A. 21.6

Q. Respond only with toxicity recorded for Cc1cccc(C(=O)N2CCc3c([nH]c4ccccc34)C2CC(C)C)n1 (centres undefined)
A. -2.26

Q. Respond only with toxicity recorded for CCC(CC)NC(=O)CSc1nnc(-c2c[nH]c3ccccc23)o1
A. 28.2

Q. Respond only with toxicity recorded for Cc1c(CN2CCC(CO)(CCOc3ccccc3)CC2)[nH]c2ccc(Cl)cc12
A. -12.9

Q. Respond only with toxicity recorded for CCCOc1ccc(N/C=C/C(=O)C(C)(C)C)cc1
A. -6.8

Q. Respond only with toxicity recorded for Cc1cc(C)n(-c2cc(Oc3ccccc3)ncn2)n1
A. -5.5

----------
assay: autophagy modulators in MEF cells, primary screen, imaging, high-content, MEF GFP-LC3 (AID 463193); conditions: MEF GFP-LC3 puncta imaging, at 10 µM
In all, about 190,000 compounds went through this assay and about 1,900 (1%) were called active.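 How the source made its calls: active means percentage of spot-positive cells more than 3 SD above its plate mean, without a fluorescence outlier flag or 80% toxicity; inconclusive means no clear call, values can overlap the other calls; inactive means the rest.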 The sample holds actives, similar compounds and a random draw of the others, so the mix is not that of the screen.
Pick from active, inactive when you respond.

Reference set, count: 6
>  <Molecule>
N#C/C(=C\c1ccccc1C(F)(F)F)C(=O)Nc1ccccc1F

>  <Label class>
inactive

$$$$
>  <Molecule>
Clc1cc(-c2ccc(/C=N/n3cnnc3)o2)ccc1Br

>  <Label class>
inactive

$$$$
>  <Molecule>
CCCc1[nH]nc2c1C(c1ccc(Br)s1)C(C#N)=C(N)O2 (configuration not stated)

>  <Label class>
active

$$$$
>  <Molecule>
CCCCCC1CCC(c2nnc(SCC(C)=O)o2)CC1 (configuration not stated)

>  <Label class>
active

$$$$
>  <Molecule>
CCCc1[nH]nc2c1C(C1CC=CCC1)C(C#N)=C(N)O2 (configuration not stated)

>  <Label class>
inactive

$$$$
>  <Molecule>
COc1ccc(CC(=O)NCc2nnc(SCC(=O)Nc3ncc(C)s3)n2C)cc1

>  <Label class>
inactive

$$$$

Q. How did this test come out for COc1ccc(C)c(Cn2c(-c3nonc3N)nc3ccccc32)c1 ?
A. active

Q. How did this test come out for CCc1nnc(NS(=O)(=O)c2ccc(NC(=S)NC(=O)c3cccs3)cc2)s1 ?
A. inactive

Q. How did this test come out for Cc1ccc(Nc2cc(C)nc3c(C)ccc([N+](=O)[O-])c23)cc1 ?
A. inactive

----------
experiment: autophagy modulators in MEF cells, primary screen, imaging, high-content, MEF GFP-LC3 (AID 463193); conditions: MEF GFP-LC3 puncta imaging, at 10 µM; stronger effect = higher value;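 as to % cells with GFP-LC3 spots: spot-positive cell cutoff set from DMSO-treated cells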
The campaign covered roughly 190,000 compounds. About 1,900 (1%) were called active. The entries come from a sample that favours actives as a whole.
Response field class: string, computed from recorded % cells with GFP-LC3 spots by ranges band 1: < 3%; band 2: ≥ 3% and < 7%; band 3: ≥ 7%

Reference set, count: 8
>  <Molecule>
Oc1c(CN2CCN(c3ccc(F)cc3)CC2)cc(Cl)c2cccnc12

>  <Label class>
band 3

$$$$
>  <Molecule>
O=C(O)CC(Cc1ccccc1)C(=O)Nc1ccc([N+](=O)[O-])cc1 (stereo unspecified)

>  <Label class>
band 1

$$$$
>  <Molecule>
C=C1c2cc(CC)ccc2NC(=O)N1c1ccc(C)cc1

>  <Label class>
band 1

$$$$
>  <Molecule>
O=C(c1cccc(C(=O)N2CCc3ccccc32)n1)N1CCc2ccccc21

>  <Label class>
band 3

$$$$
>  <Molecule>
CN(C)c1ccc(NC(=O)CSc2n[nH]c(-c3ccco3)n2)cc1

>  <Label class>
band 2

$$$$
>  <Molecule>
O=C(NCc1ccco1)c1nn2cccnc2c1Cl

>  <Label class>
band 1

$$$$
>  <Molecule>
Cc1occc1C(=O)N1CCCc2ccccc21

>  <Label class>
band 3

$$$$
>  <Molecule>
O=C1Nc2ccccc2C12Nc1ccccc1S2 (stereo unspecified)

>  <Label class>
band 2

$$$$

Q. For this molecule, which bin applies? COc1ccc(-c2[nH]ncc2CN(C)Cc2cccnc2)c(F)c1
A. band 2

Q. For this molecule, which bin applies? O=C(c1cccc(C(=O)N2CCN(c3ccc(F)cc3)CC2)c1)N1CCN(c2ccc(F)cc2)CC1
A. band 3

Q. For this molecule, which bin applies? COc1ccc(NC(=O)COC(=O)c2ccncc2)c(OC)c1
A. band 2

----------
experiment: autophagy modulators in MEF cells, primary screen, imaging, high-content, MEF GFP-LC3 (AID 463193); details: MEF GFP-LC3 puncta imaging, at 10 µM; measured here: cell loss, nuclei count;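 as to toxicity: cell loss after 18 h compound exposure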
Hit rate of the full screen: of about 190,000 compounds, about 1,900 (1%) were called active. The sample holds actives, similar compounds and a random draw of the others, so the mix is not that of the screen.
toxicity overview
The reply should be a number in %, with the unit left off.

As a guide, the following entries are already answered.
>  <Compound>
CN=c1scc(-c2cc(OC)ccc2OC)n1/N=C/c1c(C)[nH]c2ccccc12

>  <toxicity / %>
3.61

$$$$
>  <Compound>
C=CCn1c(CCNC(=O)c2ccccc2F)nnc1SCC(=O)Nc1ccc(OC)cc1

>  <toxicity / %>
10.4

$$$$
>  <Compound>
Cn1c(=O)c([N+](=O)[O-])c(Oc2ccccc2)c2ccccc21

>  <toxicity / %>
-4.02

$$$$
>  <Compound>
COc1ccc(N2CCN(C(c3cc4ccc(C)cc4[nH]c3=O)c3nnnn3C3CCCC3)CC2)cc1 (centres undefined)

>  <toxicity / %>
-3.74

$$$$
>  <Compound>
CCc1nnc(NS(=O)(=O)c2ccc(NC(=S)NC(=O)c3cccs3)cc2)s1

>  <toxicity / %>
-9.89

$$$$

Q. Respond only with toxicity recorded for CC(Oc1cccc(NC(=O)c2cccs2)c1)C(=O)c1ccccc1 (centres undefined)
A. 21.1

Q. Respond only with toxicity recorded for Cc1ccccc1CN1C[C@@H]2C[C@@H](c3ccc4nsnc4c3)N3CCC[C@@]23C1=O
A. 24.5

Q. Respond only with toxicity recorded for Cc1nn(CC(=O)Nc2ccc(C#N)cc2)c(C)c1[N+](=O)[O-]
A. 9.5

Q. Respond only with toxicity recorded for O=C(O)CS/C(=C\c1ccc(F)cc1)c1nc2ccccc2s1
A. -6.27

Q. Respond only with toxicity recorded for CCOC(=O)C1CCN(C(c2cc3cc(C)cc(C)c3[nH]c2=O)c2nnnn2C2CCCCC2)CC1 (centres undefined)
A. 24.2

----------
test: autophagy modulators in MEF cells, primary screen, imaging, high-content, MEF GFP-LC3 (AID 463193); settings: MEF GFP-LC3 puncta imaging, at 10 µM
Screen size: about 190,000 compounds; about 1,900 (1%) were called active.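 How the source made its calls: active means percentage of spot-positive cells more than 3 SD above its plate mean, without a fluorescence outlier flag or 80% toxicity; inconclusive means no clear call, values can overlap the other calls; inactive means the rest.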 The entries come from a sample that favours actives as a whole.
Pick from TRUE = active, FALSE = inactive when you respond.

>  <Compound>
CC(NC(=O)Nc1ccccc1)C(c1cccs1)N1CCN(c2ccccc2)CC1 (configuration not stated)

>  <Label class>
FALSE

$$$$
>  <Compound>
Fc1cccc2ncnc(OCc3ccccc3)c12

>  <Label class>
FALSE

$$$$
>  <Compound>
CCN1C(=O)/C(=C2/Sc3ccc(OC)cc3N2C)SC1=Nc1ccc(C)cc1

>  <Label class>
TRUE

$$$$
>  <Compound>
CC(C)[C@H](NC(=O)c1ccc(F)cc1)C(=O)OCC(=O)NC(=O)c1cccn1C

>  <Label class>
FALSE

$$$$
>  <Compound>
CCCC(=O)NC(C)C(c1cccs1)N1CCN(c2ccccc2)CC1 (configuration not stated)

>  <Label class>
TRUE

$$$$
>  <Compound>
CCCOc1ccc(NC(=O)C2OC3OC(C)(C)OC3C3OC(C)(C)OC23)cc1 (configuration not stated)

>  <Label class>
TRUE

$$$$
>  <Compound>
CCOC(=O)CSc1nc2c(sc(=S)n2CCc2ccccc2)c(=O)n1Cc1ccco1

>  <Label class>
FALSE

$$$$
>  <Compound>
CCN(CC)S(=O)(=O)c1ccc(Cl)c(C(=O)NC(C)C(c2cccs2)N2CCCC2)c1 (configuration not stated)

>  <Label class>
FALSE

$$$$
>  <Compound>
COC(=O)c1ccc(NC(=O)c2cc(Cl)ccc2OC)cc1

>  <Label class>
FALSE

$$$$
>  <Compound>
O=C(CSc1nc(-c2ccco2)cc(C(F)(F)F)n1)N1CCc2ccccc2C1

>  <Label class>
FALSE

$$$$

Q. How did this test come out for COc1ccc2c(c1)CCc1c(C(=O)N3CCCC3)noc1-2 ?
A. TRUE

Q. How did this test come out for Cc1cccc(COc2ccccc2/C=N/Nc2ccc([N+](=O)[O-])cc2)c1 ?
A. FALSE

Q. How did this test come out for CN(c1ccccc1)c1ccc(/C=c2\s/c(=C(/C#N)C(=O)C(C)(C)C)n(Cc3ccco3)c2=O)cc1 ?
A. TRUE

Recorded values, source PubChem BioAssay AID463193.
